Target: B-Raf (V600E)-kinase (Homo sapiens (Human), UniProt P15056, V600E)
Sequence (P15056 whole entry V600E): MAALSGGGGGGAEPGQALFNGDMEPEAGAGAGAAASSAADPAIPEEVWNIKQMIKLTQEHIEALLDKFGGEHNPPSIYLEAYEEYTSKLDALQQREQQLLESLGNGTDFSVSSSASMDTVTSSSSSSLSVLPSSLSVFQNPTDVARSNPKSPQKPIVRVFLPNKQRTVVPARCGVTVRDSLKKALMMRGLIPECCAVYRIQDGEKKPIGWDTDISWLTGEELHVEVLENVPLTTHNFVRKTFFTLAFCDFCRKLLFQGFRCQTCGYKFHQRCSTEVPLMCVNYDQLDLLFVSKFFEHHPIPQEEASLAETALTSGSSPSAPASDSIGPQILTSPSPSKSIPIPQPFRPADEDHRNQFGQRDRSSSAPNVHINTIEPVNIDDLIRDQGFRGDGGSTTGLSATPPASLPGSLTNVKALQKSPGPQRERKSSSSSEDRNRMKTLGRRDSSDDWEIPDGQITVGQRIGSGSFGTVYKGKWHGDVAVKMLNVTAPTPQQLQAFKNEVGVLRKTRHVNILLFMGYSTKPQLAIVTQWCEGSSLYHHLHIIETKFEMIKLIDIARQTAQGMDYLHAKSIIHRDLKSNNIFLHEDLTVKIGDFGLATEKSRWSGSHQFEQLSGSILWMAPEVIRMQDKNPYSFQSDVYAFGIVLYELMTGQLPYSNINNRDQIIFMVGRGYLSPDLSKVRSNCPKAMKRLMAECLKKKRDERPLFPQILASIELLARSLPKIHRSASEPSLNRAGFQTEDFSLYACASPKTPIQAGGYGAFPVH
Assay: Kinase test B-Raf (V600E)
Settings: 250 μM ATP, biotinylated MEK1 substrate
Field: label. Allowed values: yes (IC50 < 200 nM) or no (IC50 >= 200 nM).

Incoming: Consider COc1ccc(NC(=O)c2ccc(C)c(Nc3ncnc4ccc(N5CCN(C)CC5)nc34)c2)cc1C(F)(F)F [III-13] . Does its IC50 lie strictly below 200 nM?
Outgoing: yes

Incoming: Consider COc1c(NC(=O)c2ccc(C)c(Nc3ncnc4ccc(C5CCN(C)C5)nc34)c2)cc(C(C)(C)C)cc1NS(C)(=O)=O (stereo not drawn) [III-40] . Does its IC50 lie strictly below 200 nM?
Outgoing: no

Incoming: Consider COc1c(NC(=O)c2ccc(C)c(Nc3ncnc4ccc(N5CCN(C)CC5)nc34)c2)cc(C(C)(C)C)cc1NS(C)(=O)=O [III-18] . Does its IC50 lie strictly below 200 nM?
Outgoing: no

Incoming: Consider COc1c(NC(=O)c2ccc(C)c(Nc3ncnc4ccc(C5=CCN(C(C)C)CC5)nc34)c2)cc(C(C)(C)C)cc1NS(C)(=O)=O [III-29] . Does its IC50 lie strictly below 200 nM?
Outgoing: no

Incoming: Consider Cc1ccc(C(=O)Nc2cc(C(C)(C)C)on2)cc1Nc1ncnc2ccc(N3CCOCC3)nc12 [III-2] . Does its IC50 lie strictly below 200 nM?
Outgoing: yes

Incoming: Consider COc1c(NC(=O)c2ccc(C)c(Nc3ncnc4ccc(CC5CCN(CC6CC6)CC5)nc34)c2)cc(C(C)(C)C)cc1NS(C)(=O)=O [III-47] . Does its IC50 lie strictly below 200 nM?
Outgoing: no

Incoming: Consider COCCN1CCC(Cc2ccc3ncnc(Nc4cc(C(=O)Nc5cc(C(C)(C)C)cc(NS(C)(=O)=O)c5OC)ccc4C)c3n2)CC1 [III-49] . Does its IC50 lie strictly below 200 nM?
Outgoing: no

Incoming: Consider Cc1ccc(C(=O)Nc2cc(N3CCN(C)CC3)cc(C(F)(F)F)c2)cc1Nc1ncnc2ccc(N3CCOCC3)nc12 [III-7] . Does its IC50 lie strictly below 200 nM?
Outgoing: yes

Incoming: Consider Cc1ccc(C(=O)N2CCOCC2)cc1Nc1ncnc2cnc(N3CCOCC3)cc12 [I-4] . Does its IC50 lie strictly below 200 nM?
Outgoing: no

Incoming: Consider COc1c(NC(=O)c2ccc(C)c(Nc3ncnc4ccc(NC5CCOC5)nc34)c2)cc(C(C)(C)C)cc1NS(C)(=O)=O (stereo not drawn) [III-21] . Does its IC50 lie strictly below 200 nM?
Outgoing: yes

Incoming: Consider Cc1ccc(C(=O)Nc2cc(C(C)(C)C)on2)cc1Nc1ncnc2ccc(N3CCN(C)CC3)nc12 [III-10] . Does its IC50 lie strictly below 200 nM?
Outgoing: yes

Incoming: Consider COc1ccc(NC(=O)c2ccc(C)c(Nc3ncnc4ccc(N5CCN(CC6CCN(C)CC6)CC5)nc34)c2)cc1C(F)(F)F [III-15] . Does its IC50 lie strictly below 200 nM?
Outgoing: yes

Incoming: Consider COc1c(NC(=O)c2ccc(C)c(Nc3ncnc4ccc(C5=CCNC5)nc34)c2)cc(C(C)(C)C)cc1NS(C)(=O)=O [III-38] . Does its IC50 lie strictly below 200 nM?
Outgoing: no

Incoming: Consider COc1c(NC(=O)c2ccc(C)c(Nc3ncnc4ccc(C5=CCNCC5)nc34)c2)cc(C(C)(C)C)cc1NS(C)(=O)=O [III-27] . Does its IC50 lie strictly below 200 nM?
Outgoing: yes

Incoming: Consider COCCN1CCN(c2ccc3ncnc(Sc4cc(C(=O)Nc5cccc(C(C)(C)C#N)c5)ccc4C)c3n2)CC1 [III-52] . Does its IC50 lie strictly below 200 nM?
Outgoing: no
